- Measured On: T1, recombinant human trimeric ARG2 enzyme (construct not given) (human, UniProt P78540 23-354)
- T1 sequence (looked up): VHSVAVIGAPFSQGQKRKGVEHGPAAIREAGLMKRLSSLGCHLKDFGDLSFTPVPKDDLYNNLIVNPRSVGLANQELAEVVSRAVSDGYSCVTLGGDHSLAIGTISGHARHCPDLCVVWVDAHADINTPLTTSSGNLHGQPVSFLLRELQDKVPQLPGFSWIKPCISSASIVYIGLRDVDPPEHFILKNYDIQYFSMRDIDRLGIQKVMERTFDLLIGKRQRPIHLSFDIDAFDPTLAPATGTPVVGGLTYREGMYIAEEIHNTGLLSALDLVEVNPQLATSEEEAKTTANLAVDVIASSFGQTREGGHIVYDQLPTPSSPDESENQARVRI
- Measurement Protocol: cell-based or functional assay
Measured Endpoint: Trimeric human ARG2 EIA IC50 (nM)
Output spec: scalar in nM, unitless text.

Binder	Readout Units	Trimeric human ARG2 EIA IC50
C0021097 scFv (scFv, V domains shown, scFv) VH: EVQLLESGGGLVQPGGSLRLSCAASGFTFSSYAMSWVRQAPGKGLEWVSAISYHPGSTYYADSVKGRFTISRDNSKNTLYLQMNSLRAEDTAVYYCARLRADLGLYMDLWGRGTLVTVSS VL: QSVLTQPPSVSAAPGQKVTISCSGSSSNIGNHYVSWYQQLPGTAPKLLIYNTFARPSGIPDRFSGSKSGTSATLGITGLQTGDEADYYCGTWDSSLSALVFGGGTKLTVL	nM	99.1

Q) Fill in reported Trimeric human ARG2 EIA IC50 for this entry: C0021065 scFv (scFv, V domains shown, scFv) VH: EVQLLESGGGLVQPGGSLRLSCAASGFTFSSYAMSWVRQAPGKGPEWVSAISGFSPYYADSVKGRFTISRDNSRNTLYLQMNSLRAEDTAVYYCARLRADLGLYMDLWGRGTLVTVSS VL: QSVLTQPPSVSAAPGQKVTISCSGSSSNIGNHYVSWYQQLPGTAPKLLIYDTDHMASGIPDRFSGSKSGTSATLGITGLQTGDEADYYCGTWDSSLSALVFGGGTKLTVL
A) 143
